Molecular target: T1, native soluble IL-6R in human plasma (human), P08887
T1 chain: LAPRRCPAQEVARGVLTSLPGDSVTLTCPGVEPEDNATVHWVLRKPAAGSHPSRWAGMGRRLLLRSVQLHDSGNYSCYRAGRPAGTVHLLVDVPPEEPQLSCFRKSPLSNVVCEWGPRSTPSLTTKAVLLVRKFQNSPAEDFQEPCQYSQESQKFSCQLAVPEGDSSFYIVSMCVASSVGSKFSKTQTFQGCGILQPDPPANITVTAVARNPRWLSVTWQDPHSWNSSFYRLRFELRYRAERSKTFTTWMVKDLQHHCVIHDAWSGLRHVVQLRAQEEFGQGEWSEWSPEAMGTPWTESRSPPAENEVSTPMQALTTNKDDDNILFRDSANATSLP
Test: ELISA 3, periplasmic extract; competitor BN-12; human plasma
Details: remark: other sources report otherwise

binder: IL6RPMP103F2 (VHH) VHH: EVQLVESGGGLVQAGGSLRLSCVASGHTSDTYIMAWFRQAPGKEREFVASILWDGSITYYADSVKDRFTISRDISRKTLYLQMNSLRPEDTATYTCARGIYFSRRYVDPGIYGTWGQGTQVTVSS
OD450 ratio sample/blank: 0.993
--
binder: IL6RPMP103C3 (VHH) VHH: EVQLVESGGGLVQPGGSMRLSCAATGAIFSISTMGWYRQAPGAQREFVAGVGLDGTPNYADSVKGRFTISRDNTKNTVSLQMENLKPEDTGVYYCNIDEGMDYDGNFYDRWGQGTQVTVSS
OD450 ratio sample/blank: 1.01
--
binder: IL6RPMP108E9 (VHH) VHH: EVQLVESGGGLVQAGGSLRLSCAFSRRSFGNFPMGWFRQRPGEEREYVAVISWNNNYIHYRDSVKGRFTASRDTSENRMYLQMNGLKPEDTAVYYCAARTKDNTLFTPAEEYDYWGQGTQVTVSS
OD450 ratio sample/blank: 0.989
--
binder: IL6RPMP108C9 (VHH) VHH: EVQLVESGGGLVQAGGSLRLSCAASGRTYAMAWFRQAPGKEREFVAAISIVTDYADSVKGRFNISRDNRENTVYLQMNSLKPEDTAVYYCAANTYYSGAYFPRGHEWYEYWGQGTQVTVSS
OD450 ratio sample/blank: 1.01
